These entries and their values trace back to paper PMC7464788.

- System: Candida albicans (NCYC1467)
- Assay type: cell-based
Positions of bridges follow the written chain, without caps; N, C: chain ends. Residues, ends and D or L forms follow the SMILES beside them.
ENDPOINT_LABEL: MBC C. albicans (µM)
All answers are understood in µM, so give the number only.

Asked: Supply measured MBC C. albicans of CC[C@H](C)[C@@H]1NC(=O)[C@H](C)NC(=O)[C@@H](NC(=O)[C@H](Cc2ccccc2)NC(=O)[C@@H](NC(=O)[C@H](CCCCN)NC(=O)[C@@H]2CCCN2C(=O)[C@H](CC(C)C)NC(=O)[C@H](Cc2ccccc2)NC(=O)[C@H](CCCCN)NC(=O)[C@@H](N)CCCCN)[C@@H](C)CC)CSSC[C@@H](C(=O)O)NC(=O)[C@H](CCCCN)NC(=O)[C@H](CCCCN)NC(=O)[C@H]([C@@H](C)O)NC1=O [KKB2] (H-KKFLPKIFCAITKKC-OH; disulfide 9-15) in your reply.
Given back: 64

Asked: Kindly indicate its recorded MBC C. albicans. Item: CC[C@H](C)[C@@H]1NC(=O)[C@H](C)NC(=O)[C@@H](NC(=O)[C@H](Cc2ccccc2)NC(=O)[C@@H](NC(=O)[C@H](CCCCN)NC(=O)[C@@H]2CCCN2C(=O)[C@H](CC(C)C)NC(=O)[C@@H](N)Cc2ccccc2)[C@@H](C)CC)CSSC[C@@H](C(=O)O)NC(=O)[C@H](CCCCN)NC(=O)[C@H](CCCCN)NC(=O)[C@H]([C@@H](C)O)NC1=O [Peptide B1A2] (H-FLPKIFCAITKKC-OH; disulfide 7-13)
Given back: 512

Asked: Give the reported value of MBC C. albicans for this record: CC[C@H](C)[C@@H]1NC(=O)[C@H](C)NC(=O)[C@@H](NC(=O)[C@H](Cc2ccccc2)NC(=O)[C@H](Cc2c[nH]c3ccccc23)NC(=O)[C@H](CCCCN)NC(=O)[C@H](Cc2c[nH]c3ccccc23)NC(=O)[C@@H]2CCCN2C(=O)[C@H](CC(C)C)NC(=O)[C@H](Cc2ccccc2)NC(=O)[C@@H](N)CCCCN)CSSC[C@@H](C(=O)O)NC(=O)[C@H](CCCCN)NC(=O)[C@H](CCCCN)NC(=O)[C@H]([C@@H](C)O)NC1=O [KW^5,7B2] (H-KFLPWKWFCAITKKC-OH; disulfide 9-15)
Given back: 32

Asked: Please report the measured MBC C. albicans for CC[C@H](C)[C@@H]1NC(=O)[C@H](C)NC(=O)[C@@H](NC(=O)[C@H](Cc2ccccc2)NC(=O)[C@@H](NC(=O)[C@H](CCCCN)NC(=O)[C@H](Cc2c[nH]c3ccccc23)NC(=O)[C@@H]2CCCN2C(=O)[C@H](CC(C)C)NC(=O)[C@H](Cc2ccccc2)NC(=O)[C@@H](N)CCCCN)[C@@H](C)CC)CSSC[C@@H](C(=O)O)NC(=O)[C@H](CCCCN)NC(=O)[C@H](CCCCN)NC(=O)[C@H]([C@@H](C)O)NC1=O [KWB2] (H-KFLPWKIFCAITKKC-OH; disulfide 9-15)
Given back: 64
